- testSummary: Henry solubility constant Hcp at 298.15 K (mol/(m3 Pa))
- conditionContext: reference: Diaz et al. (2005)
Below, each entry is listed with its recorded Henry solubility constant Hcp.

{"columns": ["smilesCode", "Henry solubility constant Hcp"],
 "data": [
  ["COc1c(Cl)ccc(Cl)c1Cl", 0.011],
  ["COc1c(Cl)cc(Cl)cc1Br", 0.0082],
  ["COc1c(Br)ccc(Cl)c1Br", 0.0074],
  ["COc1c(Cl)ccc(Cl)c1Br", 0.0077],
  ["COc1c(Cl)cc(Br)cc1Cl", 0.012],
  ["COc1c(Br)ccc(Br)c1Br", 0.0052],
  ["COc1c(Br)cc(Cl)cc1Br", 0.02],
  ["COc1c(Br)cc(Br)cc1Br", 0.019],
  ["COc1c(Cl)cc(Cl)cc1Cl", 0.0044],
  ["COc1c(Cl)ccc(Br)c1Cl", 0.011]
]}
